STUDY_SYSTEM: USP1, construct USP1 (1-785, GG670, 671AA)/UAF1 (1-677)-Flag (Homo sapiens, UniProt O94782, G670A/G671A)
Construct: USP1, construct USP1 (1-785, GG670, 671AA)/UAF1 (1-677)-Flag; Viva
Sequence (O94782 whole entry G670A/G671A): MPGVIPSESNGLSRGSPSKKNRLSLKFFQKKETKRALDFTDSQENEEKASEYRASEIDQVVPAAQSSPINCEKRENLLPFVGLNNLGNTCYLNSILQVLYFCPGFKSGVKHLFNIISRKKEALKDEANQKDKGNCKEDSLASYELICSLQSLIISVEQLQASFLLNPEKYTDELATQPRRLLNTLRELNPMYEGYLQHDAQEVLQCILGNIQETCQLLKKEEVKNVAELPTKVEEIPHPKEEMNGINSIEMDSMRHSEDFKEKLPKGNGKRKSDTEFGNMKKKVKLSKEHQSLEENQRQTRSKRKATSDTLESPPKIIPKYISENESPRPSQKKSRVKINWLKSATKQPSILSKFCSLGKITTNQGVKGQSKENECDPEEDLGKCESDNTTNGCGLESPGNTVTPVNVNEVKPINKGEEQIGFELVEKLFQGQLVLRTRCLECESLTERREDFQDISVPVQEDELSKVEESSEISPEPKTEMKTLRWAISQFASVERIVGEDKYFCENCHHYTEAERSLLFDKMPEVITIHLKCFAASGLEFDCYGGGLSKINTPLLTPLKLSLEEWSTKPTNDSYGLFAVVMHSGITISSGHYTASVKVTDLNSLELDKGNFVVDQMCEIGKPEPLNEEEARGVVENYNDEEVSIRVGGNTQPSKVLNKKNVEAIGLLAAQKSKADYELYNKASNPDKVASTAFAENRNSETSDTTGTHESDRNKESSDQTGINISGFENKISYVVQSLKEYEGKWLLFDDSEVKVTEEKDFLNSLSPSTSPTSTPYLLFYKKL
Sequence (Q8TAF3 whole entry partner): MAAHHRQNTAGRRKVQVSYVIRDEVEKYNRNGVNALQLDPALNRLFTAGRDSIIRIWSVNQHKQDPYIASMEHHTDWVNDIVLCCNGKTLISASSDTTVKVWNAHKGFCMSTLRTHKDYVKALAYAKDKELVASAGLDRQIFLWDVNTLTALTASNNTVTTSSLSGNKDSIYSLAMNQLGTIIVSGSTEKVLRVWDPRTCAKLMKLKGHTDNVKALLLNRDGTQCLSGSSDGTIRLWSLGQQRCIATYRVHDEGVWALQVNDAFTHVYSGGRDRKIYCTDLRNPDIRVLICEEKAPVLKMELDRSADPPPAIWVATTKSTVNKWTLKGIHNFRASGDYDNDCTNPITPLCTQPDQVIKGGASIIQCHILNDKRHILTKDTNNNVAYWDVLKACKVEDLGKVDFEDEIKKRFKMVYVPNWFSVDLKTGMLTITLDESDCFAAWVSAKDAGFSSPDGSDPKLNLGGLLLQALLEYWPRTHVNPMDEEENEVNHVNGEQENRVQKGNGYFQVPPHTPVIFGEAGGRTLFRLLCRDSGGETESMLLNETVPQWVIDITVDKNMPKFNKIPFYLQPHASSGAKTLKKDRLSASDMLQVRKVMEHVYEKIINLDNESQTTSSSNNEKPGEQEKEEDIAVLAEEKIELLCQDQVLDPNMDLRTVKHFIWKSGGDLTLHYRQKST
TEST_SUMMARY: Ubiquitin-Rhodamine 110 assay for USP1 activity
CONDITION_DETAILS: enzyme 25 pM, Ub-Rh110 25 nM, 30 minutes preincubation, 8- or 10-point dilution
ATTRIBUTE_MEASURED: IC50

Inquiry: Return IC50 for the following compound: CC(C)c1ccccc1-c1ncc2c(n1)N(Cc1ccc(-c3nc(C(F)(F)F)cn3C)cc1)C(=O)OC2 [Example I-7]
Reply text: ≤ 10 nM

Inquiry: Return IC50 for the following compound: CC(C)c1ccccc1-c1ncc2c(n1)N(Cc1ccc(-c3nc(C(F)(F)F)cn3C)cc1)C(=O)C2 [Example I-18]
Reply text: ≤ 10 nM

Continuing:
Inquiry: Return IC50 for the following compound: CC(C)c1ccccc1-c1ncc2nc(C3CNC3)n(Cc3ccc(-n4cccn4)cc3)c2n1 [Example I-14]
Reply text: 100 to 1000 nM

Inquiry: Return IC50 for the following compound: CC(C)c1ncccc1-c1ncc2cnn(Cc3ccc(-c4nc(C(F)(F)F)cn4C)cc3)c2n1 [Example I-10]
Reply text: 10 to 100 nM

Inquiry: Return IC50 for the following compound: CC(C)c1ncccc1-c1ncc2c(n1)N(Cc1ccc(-c3nc(C(F)(F)F)cn3C)cc1)C(=O)C2 [Example I-16]
Reply text: 10 to 100 nM

Inquiry: Return IC50 for the following compound: COc1ncnc(C2CC2)c1-c1ncc2sc(=O)n(Cc3ccc(-n4nc(C(F)(F)F)cc4C)cc3)c2n1 [Example I-21]
Reply text: ≤ 10 nM

Inquiry: Return IC50 for the following compound: COc1ncnc(C2CC2)c1-c1ncc2sc(=O)n(Cc3ccc(-c4nc(C(F)(F)F)cn4C)cc3)c2n1 [Example I-22]
Reply text: ≤ 10 nM

Inquiry: Return IC50 for the following compound: CC(C)c1ncccc1-c1ncc2c(n1)N(Cc1ccc(-c3nc(C(F)(F)F)cn3C)cc1)C(=O)C21CC1 [Example I-11]
Reply text: 10 to 100 nM

Inquiry: Return IC50 for the following compound: CC(C)c1ccccc1-c1ncc2nc(C3COC3)n(Cc3ccc(-n4cccn4)cc3)c2n1 [Example I-15]
Reply text: 100 to 1000 nM

Inquiry: Return IC50 for the following compound: COc1nc2cnc(-c3cccnc3C(C)C)nc2n1Cc1ccc(-c2nc(C(F)(F)F)cn2C)cc1 [Example I-17]
Reply text: 100 to 1000 nM

Inquiry: Return IC50 for the following compound: CC(C)c1ncccc1-c1ncc2c(n1)N(Cc1ccc(-c3nc(C(F)(F)F)cn3C)cc1)C(=O)C(C)(C)O2 [Example I-5]
Reply text: 10 to 100 nM

Inquiry: Return IC50 for the following compound: CC(C)c1ccccc1-c1ncc2c(n1)N(Cc1ccc(-c3nc(C(F)(F)F)cn3C)cc1)C(=O)N(C)C2 [Example I-6]
Reply text: 10 to 100 nM

Inquiry: Return IC50 for the following compound: CC(C)c1ncccc1-c1ncc2oc(=O)n(Cc3ccc(-c4nc(C(F)(F)F)cn4C)cc3)c2n1 [Example I-13]
Reply text: 100 to 1000 nM

Inquiry: Return IC50 for the following compound: CC(C)c1ncccc1-c1ncc2c(n1)N(Cc1ccc(-c3nc(C(F)(F)F)cn3C)cc1)CCO2 [Example I-2]
Reply text: ≤ 10 nM

Inquiry: Return IC50 for the following compound: CC(C)c1ncccc1-c1ncc2c(n1)N(Cc1ccc(-c3nc(C(F)(F)F)cn3C)cc1)C(=O)CC2 [Example I-20]
Reply text: 10 to 100 nM

Origin of values: patent US20240239808A1
